- Test system: HeLa
- procedure.summary: Ratio of compound IC50 to (-)-gossypol IC50 for human HeLa cells
- Format: functional
Note that class boundaries on Ratio IC50 are bin 1 (below 0.8), bin 2 (0.8 to below 1), bin 3 (1 or more)

Recorded results for 2 compounds are shown here.
INSERT INTO assay_data (compound, class_name) VALUES
  ('Cc1cc2c(c(O)c1-c1c(C)cc3c(c1O)/C(=C/NC1CC1)C(=O)C(O)=C3C(C)C)/C(=C/NC1CC1)C(=O)C(O)=C2C(C)C (stereo in doubt; 5b)', 'bin 1'),
  ('Cc1cc2c(c(O)c1-c1c(C)cc3c(c1O)/C(=C/NCCCO)C(=O)C(O)=C3C(C)C)/C(=C/NCCCO)C(=O)C(O)=C2C(C)C (stereo in doubt; 4b)', 'bin 1');

We next turn to a different compound, shown below.
q: # bin label for Cc1cc2c(c(O)c1-c1c(C)cc3c(c1O)/C(=C/Nc1ccc(Br)cc1)C(=O)C(O)=C3C(C)C)/C(=C/Nc1ccc(Br)cc1)C(=O)C(O)=C2C(C)C (stereo in doubt; 6b)
a: bin 3

====

- System: HeLa
- procedure.summary: Ratio of compound IC50 to (-)-gossypol IC50 for human HeLa cells
- Format: functional
quantity: Ratio IC50
Answer with the value's number alone.

The following compounds have reported results that may help.
INSERT INTO measurements (compound, reported) VALUES
  ('Cc1cc2c(c(O)c1-c1c(C)cc3c(c1O)/C(=C/N[C@H](CO)[C@H](O)c1ccc([N+](=O)[O-])cc1)C(=O)C(O)=C3C(C)C)/C(=C/N[C@H](CO)[C@H](O)c1ccc([N+](=O)[O-])cc1)C(=O)C(O)=C2C(C)C (stereo in doubt; 1b)', 0.49),
  ('CC1=C(C2=C(C)C(=O)c3c(c(C=O)c(O)c(O)c3C(C)C)C2=O)C(=O)c2c(C=O)c(O)c(O)c(C(C)C)c2C1=O [GOSSYPOLONE]', 1.31);

q: Recorded Ratio IC50 for Cc1cc2c(c(O)c1-c1c(C)cc3c(c1O)/C(=C/N[C@H](CO)Cc1ccccc1)C(=O)C(O)=C3C(C)C)/C(=C/N[C@H](CO)Cc1ccccc1)C(=O)C(O)=C2C(C)C (stereo in doubt; 2a) , please?
a: 1.49

q: Lookup Cc1cc2c(c(O)c1-c1c(C)cc3c(c1O)/C(=C/NCCc1ccccc1)C(=O)C(O)=C3C(C)C)/C(=C/NCCc1ccccc1)C(=O)C(O)=C2C(C)C (stereo in doubt; 3b)
a: 2.24

q: Same question, Cc1cc2c(c(O)c1-c1c(C)cc3c(c1O)/C(=C/NCCc1ccccc1)C(=O)C(O)=C3C(C)C)/C(=C/NCCc1ccccc1)C(=O)C(O)=C2C(C)C (stereo in doubt; 3a) this time
a: 2.91

====

- System: HeLa
- procedure.summary: Anticancer activity against human HeLa cells after 48 hrs by MTT assay
- Assay type: functional, cell-based
- condition.set: Homo sapiens, HeLa, 48 h
IC50 by entry:
Entry rule: numbers only, all in µM.

INSERT INTO results (molecule, quantity_unit, reported) VALUES
  ('Cc1cc2c(C(C)C)c(O)c(O)cc2c(O)c1-c1c(C)cc2c(C(C)C)c(O)c(O)cc2c1O [APOGOSSYPOL]', 'µM', 25.5);

Now, please, on to the next molecule.
q: Which IC50 value belongs to Cc1cc2c(c(O)c1-c1c(C)cc3c(c1O)/C(=C/NC(C)C)C(=O)C(O)=C3C(C)C)/C(=C/NC(C)C)C(=O)C(O)=C2C(C)C (stereo in doubt; 10a) ?
a: 23.8

====

- procedure.summary: Anticancer activity against human U87 cells after 48 hrs by MTT assay
- Format: functional, cell-based, U-87MG ATCC
- condition.set: u-87mg atcc
quantity: IC50 (µM)
Provide only the numeric value, understood in µM.

INSERT INTO results (compound, reported) VALUES
  ('Cc1cc2c(c(O)c1-c1c(C)cc3c(c1O)/C(=C/N[C@H](CO)[C@H](O)c1ccc([N+](=O)[O-])cc1)C(=O)C(O)=C3C(C)C)/C(=C/N[C@H](CO)[C@H](O)c1ccc([N+](=O)[O-])cc1)C(=O)C(O)=C2C(C)C (stereo in doubt; 1a)', 30.6);

q: State the recorded IC50 for this entry: Cc1cc2c(c(O)c1-c1c(C)cc3c(c1O)/C(=C/NCCCO)C(=O)C(O)=C3C(C)C)/C(=C/NCCCO)C(=O)C(O)=C2C(C)C (stereo in doubt; 4a)
a: 29

q: Can you check Cc1cc2c(C(C)C)c(O)c(O)cc2c(O)c1-c1c(C)cc2c(C(C)C)c(O)c(O)cc2c1O [APOGOSSYPOL] next?
a: 28.5

q: Field entry: Cc1cc2c(c(O)c1-c1c(C)cc3c(c1O)/C(=C/NCCCO)C(=O)C(O)=C3C(C)C)/C(=C/NCCCO)C(=O)C(O)=C2C(C)C (stereo in doubt; 4b)
a: 12.1

q: Now the same for Cc1cc2c(c(O)c1-c1c(C)cc3c(c1O)/C(=C/N[C@H](CO)Cc1ccccc1)C(=O)C(O)=C3C(C)C)/C(=C/N[C@H](CO)Cc1ccccc1)C(=O)C(O)=C2C(C)C (stereo in doubt; 2b)
a: 29.3

q: How about this compound: COC(=O)[C@H](Cc1ccc(O)cc1)N/C=C1\C(=O)C(O)=C(C(C)C)c2cc(C)c(-c3c(C)cc4c(c3O)/C(=C/N[C@@H](Cc3ccc(O)cc3)C(=O)OC)C(=O)C(O)=C4C(C)C)c(O)c21 (stereo in doubt; 8a)
a: 32.1

====

- procedure.summary: Anticancer activity against human U87 cells after 48 hrs by MTT assay
- Format: functional, cell-based, U-87MG ATCC
- condition.set: Homo sapiens, U-87 MG, 48 h
Listed below: IC50 values for each entry.

q: Requested read-out: IC50. Entry: COC(=O)[C@H](Cc1c[nH]c2ccccc12)N/C=C1\C(=O)C(O)=C(C(C)C)c2cc(C)c(-c3c(C)cc4c(c3O)/C(=C/N[C@@H](Cc3c[nH]c5ccccc35)C(=O)OC)C(=O)C(O)=C4C(C)C)c(O)c21 (stereo in doubt; 9a)
a: > 80 µM

q: Again, but for COC(=O)[C@H](Cc1ccccc1)N/C=C1\C(=O)C(O)=C(C(C)C)c2cc(C)c(-c3c(C)cc4c(c3O)/C(=C/N[C@@H](Cc3ccccc3)C(=O)OC)C(=O)C(O)=C4C(C)C)c(O)c21 (stereo in doubt; 7a)
a: > 80 µM

q: Next: COc1c(OC)c2c3c(c(-c4c(C)cc5c(C(C)C)c(OC)c(OC)c6c5c4OC6OC)c(C)cc3c1C(C)C)OC2OC (stereo not drawn) [(-)-GOSSYPOL HEXAMETHYL ETHER]
a: > 80 µM

q: And Cc1cc2c(C(C)C)c(O)c(O)cc2c(O)c1-c1c(C)cc2c(C(C)C)c(O)c(O)cc2c1O [APOGOSSYPOL] ?
a: 35.5 µM

====

# reported Ratio IC50; entries follow
- Tested on: HeLa
- procedure.summary: Ratio of compound IC50 to cisplatin IC50 for human HeLa cells
- Assay type: functional
# respond with the number and nothing more

A selection of reference data follows.
INSERT INTO measurements (compound, quantity, reported) VALUES
  ('Cc1cc2c(c(O)c1-c1c(C)cc3c(c1O)/C(=C/N[C@H](CO)Cc1ccccc1)C(=O)C(O)=C3C(C)C)/C(=C/N[C@H](CO)Cc1ccccc1)C(=O)C(O)=C2C(C)C (stereo in doubt; 2b)', 'Ratio IC50', 1.17),
  ('COC(=O)[C@H](Cc1ccc(O)cc1)N/C=C1\C(=O)C(O)=C(C(C)C)c2cc(C)c(-c3c(C)cc4c(c3O)/C(=C/N[C@@H](Cc3ccc(O)cc3)C(=O)OC)C(=O)C(O)=C4C(C)C)c(O)c21 (stereo in doubt; 8a)', 'Ratio IC50', 1.73);

Lab note: next compound to report on.
q: Entry Cc1cc2c(c(O)c1-c1c(C)cc3c(c1O)/C(=C/NCCCO)C(=O)C(O)=C3C(C)C)/C(=C/NCCCO)C(=O)C(O)=C2C(C)C (stereo in doubt; 4b) has what Ratio IC50?
a: 0.99

====

- procedure.summary: Anticancer activity against human U87 cells after 48 hrs by MTT assay
- Format: functional, cell-based, U-87MG ATCC
- condition.set: Homo sapiens, U-87 MG, 48 h
quantity: IC50 (µM)
State just the number; it will be interpreted in µM.

Study these solved cases before continuing.
INSERT INTO results (compound, reported) VALUES
  ('Cc1cc2c(C(C)C)c(O)c(O)c(C=O)c2c(O)c1-c1c(C)cc2c(C(C)C)c(O)c(O)c(C=O)c2c1O [GOSSYPOL]', 30.2),
  ('Cc1cc2c(c(O)c1-c1c(C)cc3c(c1O)/C(=C/NC(C)C)C(=O)C(O)=C3C(C)C)/C(=C/NC(C)C)C(=O)C(O)=C2C(C)C (stereo in doubt; 10a)', 29.1),
  ('CC1=C(C2=C(C)C(=O)c3c(c(C=O)c(O)c(O)c3C(C)C)C2=O)C(=O)c2c(C=O)c(O)c(O)c(C(C)C)c2C1=O [GOSSYPOLONE]', 26.1);

Shifting focus to the compound that follows.
q: Sample Cc1cc2c(c(O)c1-c1c(C)cc3c(c1O)/C(=C/N[C@H](CO)Cc1ccccc1)C(=O)C(O)=C3C(C)C)/C(=C/N[C@H](CO)Cc1ccccc1)C(=O)C(O)=C2C(C)C (stereo in doubt; 2a) — what was its IC50?
a: 29.5
